# System: Mycobacterium tuberculosis
# experimentNotes: Antitubercular activity against Mycobacterium tuberculosis H37Rv ATCC27294 assessed as complete cessation of growth
# Assay type: functional
# conditionsUsed: H37Rv ATCC 27294
What MIC was measured for each of the following?

Observed MIC on Mycobacterium tuberculosis, entry Cc1c(NC(=O)c2cc(Cl)ccc2O)cc(C(F)(F)F)cc1C(F)(F)F , equals 3.1 µM

Per the reported Mycobacterium tuberculosis data, O=C(Nc1cc(Cl)ccc1O)c1cc(C(F)(F)F)cc(C(F)(F)F)c1 has MIC of > 50 µM

Bench note, Mycobacterium tuberculosis: entry O=C(Nc1cccc(C(F)(F)F)c1)c1cc(Cl)ccc1O , its MIC = 3.1 µM

Entry O=C(Nc1cc([N+](=O)[O-])ccc1F)c1cc(Cl)ccc1O , tested on Mycobacterium tuberculosis, has a reported MIC of 6.3 µM

Reported Mycobacterium tuberculosis MIC for item Cc1ccc(O)c(C(=O)Nc2cc(C(F)(F)F)cc(C(F)(F)F)c2)c1 was 6.3 µM

Per the reported Mycobacterium tuberculosis data, O=C(Oc1cc(C(F)(F)F)cc(C(F)(F)F)c1)c1cc(Cl)ccc1O has MIC of > 50 µM

Simply: O=C(Nc1ccccc1)c1ccc(NC(=O)c2cc(Cl)ccc2O)cc1 , Mycobacterium tuberculosis, MIC = > 50 µM

Form: item O=C(Nc1cc(C(F)(F)F)cc(C(F)(F)F)c1)c1ccccc1 ; test system Mycobacterium tuberculosis; MIC: > 50 µM

For O=C(Nc1ccc(C(F)(F)F)c(C(F)(F)F)c1)c1cc(Cl)ccc1O on Mycobacterium tuberculosis, measured MIC was 0.8 µM

Reading of MIC for N#Cc1ccc(NC(=O)c2cc(Cl)ccc2O)cc1C(F)(F)F with Mycobacterium tuberculosis: 6.3 µM

Lab entry: Mycobacterium tuberculosis assay, compound O=C(Nc1ccc(F)cc1C(F)(F)F)c1cc(Cl)ccc1O , MIC = 6.3 µM

Mycobacterium tuberculosis assay, compound Cc1c(C(F)(F)F)cc(NC(=O)c2cc(Cl)ccc2O)cc1C(F)(F)F , recorded MIC = 0.8 µM

Reported MIC (Mycobacterium tuberculosis) for entry O=C(Nc1cc(F)cc(F)c1)c1cc(Cl)ccc1O is 3.1 µM

Sample CCOC(=O)c1cccc(NC(=O)c2cc(Cl)ccc2O)c1 , system: Mycobacterium tuberculosis. Its MIC is 13 µM

Lab note: compound O=C(Nc1cc(C(F)(F)F)cc(C(F)(F)F)c1)c1cc(Br)ccc1O tested on Mycobacterium tuberculosis; recorded MIC was 6.3 µM

Form: item Cc1cc(NS(=O)(=O)c2ccc(NC(=O)c3cc(Cl)ccc3O)cc2)no1 ; test system Mycobacterium tuberculosis; MIC: > 50 µM

# value of MIC, Mycobacterium tuberculosis, item Nc1ccc(Cl)cc1C(=O)Nc1cc(C(F)(F)F)cc(C(F)(F)F)c1 = > 50 µM

Record CC(C)(C)c1cc(NC(=O)c2cc(Cl)ccc2O)cc(C(C)(C)C)c1 has Mycobacterium tuberculosis MIC equal to 6.3 µM

Entry CC(=O)Oc1ccc(Cl)cc1C(=O)Nc1cc(C(F)(F)F)cc(C(F)(F)F)c1 : MIC on Mycobacterium tuberculosis = 1.6 µM

The observed MIC for Oc1ccc(Cl)cc1CNc1cc(C(F)(F)F)cc(C(F)(F)F)c1 when tested with Mycobacterium tuberculosis stands at ≥ 50 µM

Mycobacterium tuberculosis MIC of O=C(O)c1cccc(NC(=O)c2cc(Cl)ccc2O)c1 is > 50 µM

Case NC(=O)c1cccc(NC(=O)c2cc(Cl)ccc2O)c1 , Mycobacterium tuberculosis, MIC recorded as > 50 µM

Form field, MIC with Mycobacterium tuberculosis, item COc1cc(NC(=O)c2cc(Cl)ccc2O)cc(C(F)(F)F)c1 : 6.3 µM
